The measured values listed here are drawn from PubChem BioAssay AID1159580.

Reported normalized growth values for the following compounds.
test: chemical genetic growth profiling, strain panel (AID 1159580);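 also: tested at 20 µM; growth read once vehicle control cultures reached saturation at 30 °C; 1 = growth at the plate median or of vehicle wells; lower values mean less growth of the strain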; settings: S. cerevisiae deletion strains, growth OD, locus YDL074C, strain BRE1, hits give low values
The whole screen tested about 5,500 compounds, of which about 2,000 (36%) were called active. Not shown: some 18% with an inconclusive outcome. This is one part of the list.
Form field (numeric): enter value without unit.

compound	normalized growth
CC(=O)O[C@H]1C[C@@H](OC(C)=O)C(C)(C)C2C[C@@H](O)[C@]3(C)C(CC[C@@]4(C)[C@H](c5ccoc5)OC(=O)[C@H]5O[C@]543)[C@]21C (stereo partly specified)	0.939

// normalized growth value for COc1c(C)c2c(c(O)c1C/C=C(\C)CCC(=O)O)C(=O)OC2 : 0.498

// normalized growth value for O=c1[nH]c(=O)n(C2C[C@H](O)[C@@H](CO)O2)cc1C(F)(F)F (stereo partly specified) : 0.97

// normalized growth value for CC(=O)C1CC[C@H]2C3CC[C@H]4C[C@H](O)CC[C@]4(C)C3CC[C@]12C (stereo partly specified) : 1.01

// normalized growth value for COc1ccc2c(=O)c(OC)c(-c3ccccc3)oc2c1 : 0.713

// normalized growth value for CNc1ccc(C(=O)CC(O)CCC(C)C2OC(=O)CC(O)CC(=O)CC(O)CC(O)CC(O)CC(O)CC3(O)CC(O)C(C(=O)OC)C(CC(OC4OC(C)C(O)C(N)C4O)/C=C/C=C/C=C/C=C/C=C/C=C/C=C/C2C)O3)cc1 (stereo unspecified) : 0.0938
